experimental target: Neuropilin 1 (NRP-1) (UniProt O14786 22-923, The paper says only 'purified NRP-1 protein', immobilized on a CM5 chip. Species, construct and supplier are not printed. Human ectodomain (signal peptide removed, extracellular 22-856) is taken by co)
Sequence (O14786 22-923): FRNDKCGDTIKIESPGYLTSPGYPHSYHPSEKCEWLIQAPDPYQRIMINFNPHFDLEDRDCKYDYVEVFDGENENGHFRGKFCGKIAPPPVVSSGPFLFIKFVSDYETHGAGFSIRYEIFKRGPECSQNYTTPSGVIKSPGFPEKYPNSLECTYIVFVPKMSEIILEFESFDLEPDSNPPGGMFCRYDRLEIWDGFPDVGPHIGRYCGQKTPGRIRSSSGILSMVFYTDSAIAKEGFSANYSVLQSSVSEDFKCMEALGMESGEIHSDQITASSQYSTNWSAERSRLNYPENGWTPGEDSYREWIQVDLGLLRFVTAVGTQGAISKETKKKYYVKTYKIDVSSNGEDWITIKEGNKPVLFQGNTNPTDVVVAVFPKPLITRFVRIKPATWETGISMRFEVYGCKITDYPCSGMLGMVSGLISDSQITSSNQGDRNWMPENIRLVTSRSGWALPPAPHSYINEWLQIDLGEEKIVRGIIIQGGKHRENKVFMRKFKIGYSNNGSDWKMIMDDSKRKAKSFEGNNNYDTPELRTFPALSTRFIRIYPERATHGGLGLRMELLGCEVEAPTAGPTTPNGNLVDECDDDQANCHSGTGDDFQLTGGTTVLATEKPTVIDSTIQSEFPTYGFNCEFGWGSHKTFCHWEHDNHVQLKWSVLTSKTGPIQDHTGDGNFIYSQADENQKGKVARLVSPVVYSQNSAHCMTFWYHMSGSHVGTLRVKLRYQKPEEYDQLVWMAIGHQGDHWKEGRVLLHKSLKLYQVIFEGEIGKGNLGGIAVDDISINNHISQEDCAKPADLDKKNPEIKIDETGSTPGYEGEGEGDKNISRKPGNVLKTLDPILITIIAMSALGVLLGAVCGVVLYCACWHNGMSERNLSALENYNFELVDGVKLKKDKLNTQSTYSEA
protocol summary: SPR; Biacore T200; purified NRP-1 immobilised on a CM5 chip; gradient-diluted TAR peptide flowed over; HBS-EP running buffer
run conditions: both partners purified
parameter: pKd
Scale for pKd: -log10 of concentration given in mol/L; no unit attached.

Reported pKd for CRKKRRQRRRATWLPPR (also called fused peptide TAR; bifunctional fusion peptide of TAT and A7R; source: synthetic peptide (China Peptide Co., Ltd.)) [TAR peptide] : what is it?
7.47
